Catalogue of compounds with associated IC50
# Tested on: Cullin-3 (CUL3) neddylation
# METHOD_DESCRIPTION: AlphaLISA assay for Cullin-3 (CUL3) neddylation in TF 1 cells
# Format: cell-based
# MEASUREMENT_PARAMETERS: Homo sapiens, TF-1, 3 h, 3 hours treatment

{"COMPOUND": "CCN1C(=O)[C@@H](NC(=O)c2ccc3c(c2)COC3)[C@@H](C2CC2)c2c(C(=O)N3[C@H](C#N)C[C@H]4C[C@H]43)nn(C3CCOCC3)c21", "IC50": "≤ 100 nM"}
{"COMPOUND": "CCN1C(=O)[C@@H](NC(=O)c2cccc(C(F)(F)F)c2)[C@@H](C2CC2)c2c(C(=O)N3CC[C@@H](NC)[C@@H]3C#N)nn(C3CCOCC3)c21 (relative stereo)", "IC50": "100 to 1000 nM"}

What value of measured IC50 is listed for CCN1C(=O)[C@@H](NC(=O)c2cccc(C(F)(F)F)c2)[C@@H](C2CC2)c2c(C(=O)N3CCC[C@H]3C#N)nn(C3CC3)c21 ?
≤ 100 nM

Please do the same for C=C(CN1CCC1)C(=O)NCc1nn(-c2ccccc2)c2c1[C@H](C1CC1)[C@H](NC(=O)c1cccc(C(F)(F)F)c1)C(=O)N2CC (stereo in doubt) as well.
≤ 100 nM

Try this compound next: CCN1C(=O)[C@@H](NC(=O)c2cccc(C(F)(F)F)c2)[C@@H](c2ccc(C)cc2)c2c(C(=O)N(C)C(C)C#N)nn(C3CC3)c21 (stereo partly shown)
≤ 100 nM

Another compound to check: C=C(CN1CCCC1)C(=O)NCc1nn(-c2ccccc2)c2c1[C@H](c1ccc(F)cc1)[C@H](NC(=O)c1cccc(C(F)(F)F)c1)C(=O)N2CC
≤ 100 nM

###

Examples of molecules with documented IC50 follow.
# ASSAYED_TARGET: DCN1 (DCUND1) protein PONY domain (Homo sapiens (Human), UniProt Q96GG9)
# Sequence (Q96GG9 60-248): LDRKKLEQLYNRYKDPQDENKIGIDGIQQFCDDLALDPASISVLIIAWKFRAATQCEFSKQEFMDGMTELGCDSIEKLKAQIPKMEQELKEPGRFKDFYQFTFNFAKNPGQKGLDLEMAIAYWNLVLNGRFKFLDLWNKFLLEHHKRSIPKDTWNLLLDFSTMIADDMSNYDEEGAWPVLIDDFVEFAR
# METHOD_DESCRIPTION: TR-FRET assay, DCN1 binding with FAM-labeled probe
# MEASUREMENT_PARAMETERS: TR FRET IC50 1 hr (nM), 1 hr after treatment with compound

Here's what some known entries look like.
{"MOLECULE": "CCN1C(=O)[C@@H](NC(=O)c2cccc(C(F)(F)F)c2)[C@@H](c2ccc(F)cc2)c2c(CNC(=O)C3(C#N)CC3)nn(-c3ccccc3)c21 (racemic)", "ASSAYED_TARGET": "DCN1 (DCUND1) protein PONY domain (Homo sapiens (Human), UniProt Q96GG9)", "IC50": "1000 to 3000 nM"}
{"MOLECULE": "CCN1C(=O)[C@@H](NC(=O)c2cccc(C(F)(F)F)c2)[C@@H](C2CC2)c2c(C(=O)N3CCC[C@H]3C#N)nn(-c3ccccc3)c21", "ASSAYED_TARGET": "DCN1 (DCUND1) protein PONY domain (Homo sapiens (Human), UniProt Q96GG9)", "IC50": "1000 to 3000 nM"}
{"MOLECULE": "CCN1C(=O)[C@@](CO)(NC(=O)c2cccc(C(F)(F)F)c2)[C@@H](c2ccc(F)cc2)c2c([C@@H](C)NC#N)nn(-c3ccccc3)c21", "ASSAYED_TARGET": "DCN1 (DCUND1) protein PONY domain (Homo sapiens (Human), UniProt Q96GG9)", "IC50": "1000 to 3000 nM"}

# evaluate next
Could you tell me which IC50 is on file for CCN1C(=O)[C@@H](NC(=O)c2cccc(C(F)(F)F)c2)[C@H](c2ccc(F)cc2)c2c(CC(=O)NCC#N)nn(-c3ccccc3)c21 ?
200 to 1000 nM

###

# Test system: Cullin-3 (CUL3) neddylation
# METHOD_DESCRIPTION: AlphaLISA assay for Cullin-3 (CUL3) neddylation in TF 1 cells
# Format: cell-based
# MEASUREMENT_PARAMETERS: Homo sapiens, TF-1, 3 h, 3 hours treatment
RESULT_TYPE: IC50

The cases that follow already have their IC50 on record.
{"COMPOUND": "CCN1C(=O)[C@@H](NC(=O)c2nccc(C(F)(F)F)n2)[C@H](c2ccc(F)cc2)c2c(CNC(=O)/C=C/C(=O)N(C)C)nn(-c3ccccc3)c21", "RESULT": "> 1000 nM"}
{"COMPOUND": "C=C(CN1CCOCC1)C(=O)N[C@H](C)c1nn(-c2ccccc2)c2c1[C@H](c1ccc(F)cc1)[C@H](NC(=O)c1cccc(C(F)(F)F)c1)C(=O)N2CC (mixture of isomers)", "RESULT": "100 to 1000 nM"}

For the next question, use this compound.
# get_value(readout= IC50, system= Cullin-3 (CUL3) neddylation) for C=C(CN1CC2CCC(C1)O2)C(=O)NCc1nn(-c2ccccc2)c2c1[C@H](c1ccc(F)cc1)[C@H](NC(=O)c1cccc(C(F)(F)F)c1)C(=O)N2CC
≤ 100 nM

###

# ASSAYED_TARGET: DCN1 (DCUND1) protein PONY domain (Homo sapiens (Human), UniProt Q96GG9)
# METHOD_DESCRIPTION: TR-FRET assay, DCN1 binding with FAM-labeled probe
# MEASUREMENT_PARAMETERS: 24 hr after treatment with compound; read-out: TR FRET IC50 24 hr
pIC50: −log10 of the molar value.
RESULT_TYPE: pIC50

Name the recorded pIC50 for CCN1C(=O)[C@H](NC(=O)c2cccc(C(F)(F)F)c2)[C@H](c2ccc(F)cc2)c2c(C(=O)N(CC#N)C3COC3)nn(-c3ccccc3)c21 (racemic) .
≥ 6.70

And what about the compound CCCn1nc(C(=O)N(CC#N)C2CC2)c2c1N(CC)C(=O)[C@H](NC(=O)c1cccc(C(F)(F)F)c1)[C@@H]2c1ccc(F)cc1 ?
5.52 to 6.00

Next compound up: CCN1C(=O)[C@@H](NC(=O)c2cccc(C(F)(F)F)c2)[C@@H](c2ccc(F)cc2)c2c(C(=O)N3[C@H](C#N)C[C@H]4C[C@H]43)nn([C@H]3CCOC3)c21 (relative stereo)
≥ 6.70

What about C=CC(=O)Nc1nn(-c2ccccc2)c2c1[C@H](c1ccc(F)cc1)[C@H](NC(=O)c1cccc(C(F)(F)F)c1)C(=O)N2CC (racemic) ?
≥ 6.70

// query: CCN1C(=O)[C@@H](NC(=O)c2cccc(C(F)(F)F)c2)[C@@H](c2ccc(F)cc2)c2c(CNC/C=C/C(=O)OC)nn(-c3ccccc3)c21 (racemic)
≥ 6.70

Try this compound next: CCN1C(=O)[C@@H](NC(=O)c2cccc(C(F)(F)F)c2)[C@@H](C2CC2)c2c(C(=O)N3CCNC[C@@H]3C#N)nn(C3CCOCC3)c21 (single isomer, unassigned)
≥ 6.70

###

# ASSAYED_TARGET: DCN1 (DCUND1) protein PONY domain (Homo sapiens (Human), UniProt Q96GG9)
# METHOD_DESCRIPTION: TR-FRET assay, DCN1 binding with FAM-labeled probe
# MEASUREMENT_PARAMETERS: 24 hr after treatment with compound; read-out: TR FRET IC50 24 hr
pIC50: −log10 of the molar value.
List of pIC50 values.

# example entries with known answers
{"COMPOUND": "CCN1C(=O)[C@@H](NC(=O)c2cccc(C(F)(F)F)c2)[C@@H](c2ccc(F)cc2)c2c([C@@H](C)N(C#N)CCCN(C)C)nn(-c3ccccc3)c21", "ASSAYED_TARGET": "DCN1 (DCUND1) protein PONY domain (Homo sapiens (Human), UniProt Q96GG9)", "pIC50": "5.52 to 6.00"}
{"COMPOUND": "CCN1C(=O)[C@@H](NC(=O)c2cccc(C(F)(F)F)c2)[C@@H](c2ccc(F)cc2)c2c(C(=O)N3CCC[C@H]3C#N)nn(-c3cccc(OCCN4CC5(COC5)C4)c3)c21", "ASSAYED_TARGET": "DCN1 (DCUND1) protein PONY domain (Homo sapiens (Human), UniProt Q96GG9)", "pIC50": "≥ 6.70"}
{"COMPOUND": "C=C(CO)C(=O)NCc1nn(-c2ccccc2)c2c1[C@@H](c1ccc(F)cc1)[C@H](NC(=O)c1cccc(C(F)(F)F)c1)C(=O)N2CC", "ASSAYED_TARGET": "DCN1 (DCUND1) protein PONY domain (Homo sapiens (Human), UniProt Q96GG9)", "pIC50": "6.00 to 6.70"}
{"COMPOUND": "C=C(CN1CCC1)C(=O)NCc1nn(-c2ccccc2)c2c1[C@H](C1CC1)[C@H](NC(=O)c1cccc(C(F)(F)F)c1)C(=O)N2CC (stereo in doubt)", "ASSAYED_TARGET": "DCN1 (DCUND1) protein PONY domain (Homo sapiens (Human), UniProt Q96GG9)", "pIC50": "≥ 6.70"}
{"COMPOUND": "CCN1C(=O)[C@@H](NC(=O)c2cccc(C(F)(F)F)c2)[C@@H](C2CC2)c2c(CN(C)C#N)nn(-c3ccccc3)c21", "ASSAYED_TARGET": "DCN1 (DCUND1) protein PONY domain (Homo sapiens (Human), UniProt Q96GG9)", "pIC50": "6.00 to 6.70"}

// next entry
What value of measured pIC50 is listed for CCN1C(=O)[C@@H](NC(=O)c2cccc(C(F)(F)F)c2)[C@@H](c2ccc(F)cc2)c2c(C(=O)N3CC[C@H](OC)[C@H]3C#N)nn(C3CCOCC3)c21 ?
≥ 6.70
